experiment: Measurement of LD50; settings: mouse, in vivo; oral, ddY male mice
Below: a set of entries, each annotated with reported LD50.

Here are 3 molecules together with their reported answers.
[[record]]
molecule = "CCCCC1=Cc2cc3c(cc2C1N1CCCN(CCC)CC1)OCO3 (stereo not shown) [Compound 4b]"
meas_value = "373 mg/kg"

[[record]]
molecule = "CCCCC1=C(C)c2cc3c(cc2C1N1CCN(CCC)CC1)OCO3 (stereo not shown) [Compound 5b]"
meas_value = "510 mg/kg"

[[record]]
molecule = "CCCCC1=C(c2ccccc2)c2cc3c(cc2C1N1CCN(CCC)CC1)OCO3 (stereo not shown) [Compound 6b]"
meas_value = "608 mg/kg"


Then there is this molecule:
Exercise: Request the reported LD50 associated with CCCCC1=Cc2cc3c(cc2C1N1CCN(CCCC)CC1)OCO3 (stereo not shown) [Compound 3b]
Solution: 430 mg/kg

* * *

assay: Protective effect against KCN death; format: in vivo, ddY male mice; conditions: 40 mg/kg p.o., 2 h before KCN 2.1 mg/kg i.v.
Measure Name: Survived Animals/Tested Animals

Here are 3 compounds together with their reported answers.
[[record]]
compound = "CCCCC1=C(C)c2cc3c(cc2C1N1CCN(CCC)CC1)OCO3 (stereo not shown)"
measure_name = "Survived Animals/Tested Animals"
meas_value = "5/9"

[[record]]
compound = "CCCCC1=C(c2ccccc2)c2cc3c(cc2C1N1CCN(CCC)CC1)OCO3 (stereo not shown)"
measure_name = "Survived Animals/Tested Animals"
meas_value = "3/10"

[[record]]
compound = "CCCCC1=Cc2cc3c(cc2C1N1CCCN(CCC)CC1)OCO3 (stereo not shown)"
measure_name = "Survived Animals/Tested Animals"
meas_value = "5/9"


Then there is this compound:
Exercise: Request the reported Survived Animals/Tested Animals associated with CCCCC1=Cc2cc3c(cc2C1N1CCN(CCCC)CC1)OCO3 (stereo not shown)
Solution: 3/9

* * *

assay: Measurement of LD50; conditions: mouse, in vivo, po
Measure Name: LD50 (mg/kg)
Response body: numeric value in mg/kg, unit text excluded.

[[record]]
molecule = "CCCCC1=Cc2cc3c(cc2C1N1CCN(CCC)CC1)OCO3 (centres unmarked)"
meas_value = 450


Then there is this molecule:
Exercise: Request the reported LD50 associated with CCCCC1=Cc2cc3c(cc2C1N1CCN(C)CC1)OCO3 (centres unmarked)
Solution: 368

* * *

assay: Protective effect against KCN death; assay type: in vivo, ddY male mice; settings: 40 mg/kg p.o., 2 h before KCN 2.1 mg/kg i.v.
Below: a set of entries, each annotated with reported Rate of Survival (%).
Response body: numeric value in %, unit text excluded.

Here are 3 molecules together with their reported answers.
[[record]]
molecule = "CCCCC1=C(c2ccccc2)c2cc3c(cc2C1N1CCN(CCC)CC1)OCO3 (stereo not shown)"
measure_name = "Rate of Survival (%)"
value_units = "%"
meas_value = 30

[[record]]
molecule = "CCCCC1=Cc2cc3c(cc2C1N1CCN(CCCC)CC1)OCO3 (stereo not shown)"
measure_name = "Rate of Survival (%)"
value_units = "%"
meas_value = 33

[[record]]
molecule = "CCCCC1=Cc2cc3c(cc2C1N1CCCN(CCC)CC1)OCO3 (stereo not shown)"
measure_name = "Rate of Survival (%)"
value_units = "%"
meas_value = 56


Then there is this molecule:
Exercise: Request the reported Rate of Survival (%) associated with CCCCC1=C(C)c2cc3c(cc2C1N1CCN(CCC)CC1)OCO3 (stereo not shown)
Solution: 56
